Form field: IC50 (one value per entry).
Test system: DMS-114 human small cell lung carcinoma cells
assay explanation: Sensitization to DNA damaging chemotherapeutic agents, relative ATP viability, 3 days
Format: cell-based
protocol conditions: Homo sapiens, DMS-114, 72 h, read-out: IC50 in DMS-114 cells (μM), DNA damaging chemotherapeutic agent + No Compound 1; agent alone, 3 days, relative to DMSO control

compound	IC50 [µM]
O=NN(CCCl)C(=O)NCCCl [Carmustine]	33.3
NC(=O)c1ncn([C@@H]2O[C@H](CO)[C@@H](O)[C@H]2O)n1 [Ribavirin]	172
Cn1nnc2c(C(N)=O)ncn2c1=O [Temozolomide]	339
